# experiment notes: label from the status in PepcDB records;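 note: failed if final PepcDB status was selected cloned or expressed and not failed if soluble or beyond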

# item sequence, protein production
data = [
    ("MVWPFKSKFRKQIARIEITGAIASGTRKRVLEALKTVEERKFPALLLRIDSPGGTVGDSQEIYSALKRLREKIKIVASFGNISASGGVYIGMGAEHIMANPGTITGSIGVILRGNNLERLLDKIGVSFKVIKSGPYKDILSFDRELTEPEQDILQELIDTSYQQFVQTVAEGRSLAVDKVKSFADGRIFTGQQALELGVVDRLGTEEEARRWTAELVGLDPEKTPCYTLEERKPLLSRVLPGSRKGYSRLGASIDWLEFEMSTSGLPLWLYRP", "failed"),
    ("MRFSYIEPRAKYLISKLSKIWVFYIFLSFVVIGGLVWFMHNAIKSTQDNASSLTIQERLYRHEISRLQVKTDETLKLIKEAKKRLNYNDDIRDVLQGLLNIVPDSITINSIEIDQQSVVVSGKTPSKEAFYFLFQNKLNPMFDYSRAEFFPLSDGWFNFVSTNFSNSLLIKNPESIK", "failed"),
    ("MGHHHHHHSHMKPSGEDQAALAAGPWEECFQAAVQLALRAGQIIRKALTEEKRVSTKTSAADLVTETDHLVEDLIISELRERFPSHRFIAEEAAASGAKCVLTHSPTWIIDPIDGTCNFVHRFPTVAVSIGFAVRQELEFGVIYHCTEERLYTGRRGRGAFCNGQRLRVSGETDLSKALVLTEIGPKRDPATLKLFLSNMERLLHAKAHGVRVIGSSTLALCHLASGAADAYYQFGLHCWDLAAATVIIREAGGIVIDTSGGPLDLMACRVVAASTREMAMLIAQALQTINYGRDDEK", "failed"),
    ("MSSEAVDATTLVIIPTYNELENLPLIVDRVRTATPDVHVLIVDDNSPDGTGERADKLAADDDHIFVLHREGKGGLCAAYMAGFQWGLERDYQVLCEMDADGSHAPEQLHLLLAEITNGADLVIGSRYVPGGRVVNWPKNRWLLSKGGNVYISVALGAGLTDMTAGYRAFRREVLEALPLDELSNAGYIFQVEIAYRAVEAGFDVREVPITFTEREIGESKLDGSFVKDSLLEVTKWGLKHRGGQAKELSKEMVGLLNYEWKHFKKRNTWLLEHHHHHH", "failed"),
    ("MLGLVLLYVGIVLISNGICGLTKVDPKSTAVMNFFVGGLSIICNIVVITYSALHPTAPVEGAEDIAQVSHHLTSFYGPATGLLFGFTYLYAAINHTFGLDWRPYSWYSLFVAINTIPAAILSHYSDMLDDHKVLGITEGDWWAIIWLAWGVLWLTAFIENILKIPLGKFTPWLAIIEGILTAWIPAWLLFIQHWV", "failed"),
    ("MASDPITTQEFSPRQNAVLDQALRLLVEGGEKALTTSGLARAANCSKESLYKWFGDRDGLLAAMITFQQSKVRTFEKAGDRVSAPQLADHLEVFAHDLLDVLAGDVSLALNRLAIGQASRDGSKLGDLLLERGRRQIDRRARGLIEAGRRSGYLRFDDAEEAYRSFYGLIVSDLHVRMLLGEAPDKDFSARAKKAVVAFLTLYGTEKVHSELGGKVA", "not failed"),
    ("MKSWPRPCSWACANPETKGRAYRTMSSSPTISPASDTFAAMTDDHRLAEFIREQASATRVVIQARKRLSGGAIQENWLLDLLIEGGPWAGVRRWVLRSDALSALPASLDREQEFAVLQVVYQAGVKVPRPLWLCRDVRVHGRVFFLMEYVPGSAAGRALSTGAGPQGRAQLATQLGANLARLHQVRPPCATLCFLSVPDSSPALATIDAYRRYLDTLADAYPVLEWGLRWCELHAPRSSTLCLLHRDYRTGNYLASEEGLEAVLDWEFTGWGDPCEDLGWFTARCWRFTRPDLEAGGIGQLEDFLRGYHEVSSLCIERSRLHYWQVMATLRWAVIALQQGQRHLSGEEPSLELALTARLLPELELDILHMTGAEAP", "failed"),
    ("NNTPIGTLRIGCSSTMAQNVLARITAKMLKEYPGLSVNLVTGIPAPDLIADGLDVVIRVGALQDSSLFSRRLGSMPMVLCAAKSYLAQAGNPEKPADLAGHAWLEYSVRPDNEFVIIAPEGISTRLTPQGRFVTNDPMTL", "failed"),
    ("QGHLVHMTVVSGSNVTLNISESLPENYKQLTWFYTFDQKIVEWDSRKSKYFESKFKGRVRLDPQSGALYISKVQKEDNSTYIMRVLKKTGNEQEWKIKLQVLDPVPKPVIKIEK", "not failed"),
    ("MSDTPQAILLMGPTASGKTGLALELARRFPVEIVSVDSALVYRDMDIGTAKPTAEEMAACPHHLIDVISPLQSYSAAQFHADANRLIADIQARGKLPLLVGGTMLYYKALLEGLSDLPQADAALRAELDADAALLGWPAMHARLAELDPATASRLNPNDSQRIHRALEVCLLSGKPMSELIAQGKEAAAGFRFLPLALVPRERGWLHARIAERFRIMLEQGFLDEVSRLRAKYPELTLNLPSMRCVGYRQAWEHQDGLYGHDEFVERGVAATRQLAKRQLTWTRSLDAIPVDAQRDGLAGLLGDAVDDFLAGRPPAESLRYAGDFLEHHHHHH", "not failed"),
    ("MDLFLAMRVYVKVVETGSLTAAAQACSISTTMVGNHLRALEQRLGVSLLQRTTRRQRLTEFGTAYYQRCLEVLGLVAQSEQLAEQAQGEPTGTLRITAPLTFGSELLAPALVGFSQRFPDVKLDLVLTNQRLDMIDNGFDVAIRLGNLAQSSPLIARPLQDYTLTICAAPDYLARHSAPTRPEDLRAHNCLAFAYPAGDEWRTAGTQWRMTGPEGEVLVDVDGSMVANTSAGLYQAARAGMGVVMLPDALVQRDLQEGRLVALLPDYHLPRRPMNLLYVQDRYRLPKLRSFVEFATALWGR", "failed"),
    ("MMIITTMQDAIGRTPVFKFTNKDYPIPLNSAIYAKLEHLNPGGSVKDRLGQYLIGEGFKTGKITSKTTIIEPTAGNTGIALALVAIKHHLKTIFVVPEKFSTEKQQIMRALGALVINTPTSEGISGAIKKSKELAESIPDSYLPLQFENPDNPAAYYHTLAPEIVQELGTNLTSFVAGIGSGGTFAGTARYLKERIPAIRLIGVEPEGSILNGGEPGPHEIEGIGVEFIPPFFENLDIDGFETISDEEGFSYTRKLAKKNGLLVGSSSGAAFVAALKEAQRLPEGSQVLTIFPDVADRYLSKGIYL", "failed"),
]

* * *

# experiment notes: label from the status in PepcDB records

# item sequence, protein production
rows = [
    ("MGRVRLQANQMEWRPGIYVGEGTTIASSAQLEPPLWIGQHCYIGEEVQLKAGTVIGDESRIEAGACLDRAVVWNRVQIGQRSHLEGCVLADGVRLERHVQIHEGAVIGSGCRLQEEAQVQAEVRIWPRKQIEAGAILEHHHHHH", "failed"),
    ("MPPRIEDILPHRGSMLLLAHVDTWDDETLRASAHVDPTAWYADPEGAMPAWFGIELMAQAIAAHVGLLSMREGNPARPGVLLGSRKYEAHAPAFAPAQPLSIAVQEVLRSTEGHGAYACTIAAGGRDLAQAVIKVYQPTDFQAFIEGLEHHHHHH", "failed"),
    ("MEELFCIGCGARIQTENKDAAGYTPRAALEKGLETGELYCQRCFRLRHYNEITDVHITDDEFLKLLHEVGDSDALVVNVIDIFDFNGSIIPGLSRFVAGNDVLLVGNKKDILPKSVKDGKVTQWLTERAHEEGLRPVDVILTSAQNHHAIKDLIDTIEKYRHGQDVYVVGVTNVGKSTLINAIIREITGSRDVITTSRFPGTTLDKIEIPLDDGSYIFDTPGIIHRHQMAHYLTAKNLKYVSPKKEIKPKTYQLNSEQTLFLAGLARFDFISGQKQGFTAYFDNNLNLHRTKLVGADEFYTKHVGKLLTPPTGKEVSDFPKLVRHEFTIKDKMDIVYSGLGWIRVKSEAENPVVVAAWAPEGVAVVLRKALI", "failed"),
]

* * *

# experiment notes: label from the status in PepcDB records

# item sequence, protein production
records = [
    ("MLIKLTGGTVYDPANGIDGQVRNLFIRDGRIVHSLNGATPDQEYDLRGKVVMAGAIDMHTHIGGGKVT", "failed"),
    ("TFEEDDNMERAAVTGIAFDKNQARINVRGVPDKPGVAYQILGAVADANIEVDMIIQNVGSEGTTDFSFTVPRGDYKQTLEILSERQDSIGAASIDGDDTVCKVSAVGLGMRSHVGVAAKIFRTLAEEGINIQMISTSEIKVSVLIDEKYMELATRVLHKAFNLG", "not failed"),
    ("MTASDDAPISTDRFMFGRAQRWLHWSMALLIFAAIGLGIVAAYYPSGQQPRQGLLELHKSIGFTILALLVVRIVLRLISGEPPYRRPLGHLTEMAARAGHLALYGLMLLMPLSGYLFSGAGGYSLPWFGLFQWPRLVPRDHALSEWGQVLHDRGAWVLGAVLALHLAAVCWHQFVKRDEVLSRMTGRASES", "failed"),
    ("LFGVTSELSKDGRERIYRVEGQLFYASVEDFMAAFDFREALDRVVIDVSRAHIWDISSVQALDMAVLKFRREGAEVRIVGMNEASETMVDRLAIHD", "not failed"),
    ("MSEAKELIKKMCDLQNSNEEIQKEMAGWSGVVQYKLDGYYFYVEYKSDGTCEFKEGVHSSPTFTVVAPPDFWLAVLKGQEDPVSGFMMGKYRIEGNIMEAQRLAGVIKKFQGKFEL", "not failed"),
]
